# subject_of_test: PDE4C (Homo sapiens)
# Construct: purchased MDS PHARMA
# Sequence (Q08493 whole entry): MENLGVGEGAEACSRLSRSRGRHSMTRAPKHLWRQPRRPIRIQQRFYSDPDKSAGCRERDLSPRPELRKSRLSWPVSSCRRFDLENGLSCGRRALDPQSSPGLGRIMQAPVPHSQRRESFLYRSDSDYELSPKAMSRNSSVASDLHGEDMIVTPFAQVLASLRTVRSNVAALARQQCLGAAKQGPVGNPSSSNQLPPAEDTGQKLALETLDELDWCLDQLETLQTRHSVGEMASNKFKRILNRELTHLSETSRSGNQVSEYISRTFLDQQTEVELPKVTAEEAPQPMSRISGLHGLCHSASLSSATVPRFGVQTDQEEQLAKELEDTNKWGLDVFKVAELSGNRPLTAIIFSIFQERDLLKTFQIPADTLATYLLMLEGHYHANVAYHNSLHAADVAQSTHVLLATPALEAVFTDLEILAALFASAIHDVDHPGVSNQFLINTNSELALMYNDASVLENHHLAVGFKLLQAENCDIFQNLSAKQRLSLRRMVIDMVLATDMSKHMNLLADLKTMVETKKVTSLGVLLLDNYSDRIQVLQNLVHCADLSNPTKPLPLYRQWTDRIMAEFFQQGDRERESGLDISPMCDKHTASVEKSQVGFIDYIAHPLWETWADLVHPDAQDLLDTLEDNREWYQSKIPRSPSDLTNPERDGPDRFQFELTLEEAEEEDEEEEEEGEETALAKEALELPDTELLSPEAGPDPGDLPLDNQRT
# protocol_summary: PDE4C inhibition, IMAP fluorescence polarization protocol
# Format: biochemical
# run_conditions: 1 μM; mean ± SEM, 3 experiments
Parameter threshold = 10%. Response is 1.0 when inhibition at 1 µM meets or exceeds it, else 0.0.

// query // inclusive: inhibition at 1 µM at least 10%? input: C=CCN(CCc1ccc(OC)c(OC)c1)S(=O)(=O)c1ccccc1
// result 0.0

// query // inclusive: inhibition at 1 µM at least 10%? input: COc1ccc(CCNS(C)(=O)=O)cc1OC
// result 1.0

// query // inclusive: inhibition at 1 µM at least 10%? input: COc1ccc(CCNS(=O)(=O)c2cc3c(cc2C)OCO3)cc1OC
// result 1.0

// query // inclusive: inhibition at 1 µM at least 10%? input: COc1ccc(CCN(C2CCCC2)S(=O)(=O)c2cc3c(cc2C)OCO3)cc1OC
// result 0.0

* * *

# subject_of_test: PDE4D (Homo sapiens)
# Construct: purchased MDS PHARMA
# Sequence (Q08499 1-673 isoform Q08499-2): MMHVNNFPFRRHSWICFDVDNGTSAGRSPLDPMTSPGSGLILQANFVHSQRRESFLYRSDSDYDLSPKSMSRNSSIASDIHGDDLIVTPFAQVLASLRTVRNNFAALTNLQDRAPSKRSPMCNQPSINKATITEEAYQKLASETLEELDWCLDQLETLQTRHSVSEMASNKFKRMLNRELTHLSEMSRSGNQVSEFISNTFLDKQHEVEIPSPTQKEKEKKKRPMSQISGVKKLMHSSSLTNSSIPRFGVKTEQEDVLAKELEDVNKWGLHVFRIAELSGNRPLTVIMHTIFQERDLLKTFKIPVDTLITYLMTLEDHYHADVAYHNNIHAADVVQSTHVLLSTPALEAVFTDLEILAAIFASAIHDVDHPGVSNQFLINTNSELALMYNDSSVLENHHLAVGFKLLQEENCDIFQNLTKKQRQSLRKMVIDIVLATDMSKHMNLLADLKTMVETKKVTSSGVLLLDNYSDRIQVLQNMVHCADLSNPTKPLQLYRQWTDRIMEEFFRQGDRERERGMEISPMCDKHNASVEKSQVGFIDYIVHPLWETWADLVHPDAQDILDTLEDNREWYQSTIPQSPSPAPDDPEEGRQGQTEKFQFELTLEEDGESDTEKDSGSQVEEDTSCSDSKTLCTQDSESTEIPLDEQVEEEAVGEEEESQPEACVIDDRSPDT
# protocol_summary: PDE4D inhibition, IMAP fluorescence polarization protocol
# Assay type: biochemical
# run_conditions: 1 μM; mean ± SEM, 3 experiments; read-out: PDE4D3 inhibition
value_kind: inhibition at 1 µM (%)
Numbers only here, please. The scale is %.

// query Give recorded inhibition at 1 µM with PDE4D (Homo sapiens) for the following compound: C=CCN(CCc1ccc(OC)c(OC)c1)S(=O)(=O)c1cc2c(cc1C)OCO2
// result 40.4

// query Give recorded inhibition at 1 µM with PDE4D (Homo sapiens) for the following compound: COc1ccc(CCN(C)S(=O)(=O)c2cc3c(cc2C)OCO3)cc1OC
// result 42.4

// query Give recorded inhibition at 1 µM with PDE4D (Homo sapiens) for the following compound: COc1ccc(CCNS(=O)(=O)c2cc3c(cc2C)OCO3)cc1OC
// result 26.5

// query Give recorded inhibition at 1 µM with PDE4D (Homo sapiens) for the following compound: COc1ccc(CCN(C)S(=O)(=O)c2ccccc2)cc1OC
// result 37.4

// query Give recorded inhibition at 1 µM with PDE4D (Homo sapiens) for the following compound: COc1ccc(CCN(Cc2ccccc2)S(=O)(=O)c2cc3c(cc2C)OCO3)cc1OC
// result 21.6

// query Give recorded inhibition at 1 µM with PDE4D (Homo sapiens) for the following compound: C=CCN(CCc1ccc(OC)c(OC)c1)S(=O)(=O)c1ccccc1
// result 67.6

// query Give recorded inhibition at 1 µM with PDE4D (Homo sapiens) for the following compound: COc1ccc(CCN(Cc2ccccc2)S(=O)(=O)c2ccccc2)cc1OC
// result 14.3

// query Give recorded inhibition at 1 µM with PDE4D (Homo sapiens) for the following compound: COc1ccc(CCN(C2CCCC2)S(=O)(=O)c2cc3c(cc2C)OCO3)cc1OC
// result 23.6

// query Give recorded inhibition at 1 µM with PDE4D (Homo sapiens) for the following compound: COc1ccc(CCNS(=O)(=O)c2ccccc2)cc1OC
// result 19.3

// query Give recorded inhibition at 1 µM with PDE4D (Homo sapiens) for the following compound: COc1ccc(CCNS(C)(=O)=O)cc1OC
// result 62.9

// query Give recorded inhibition at 1 µM with PDE4D (Homo sapiens) for the following compound: Cc1cc2c(cc1S(=O)(=O)NCCc1ccccc1)OCO2
// result 33.5
